Just for reference, ChEMBL document CHEMBL3627673 is where these values come from.

Test: Stability of the compound in DMEM media assessed as compound remaining at 213 uM after 1.5 hrs by HPLC analysis
Type: physicochemical
Conditions: read-out: Stability
outcome_measure: remaining at 1.5 h, 213 µM (%)
Only the number, expressed in %, is required.

Query: # remaining at 1.5 h, 213 µM lookup, item CN1[C@@H]2c3c(COC(N)=O)c4c(n3C[C@@H]21)C(=O)C=CC4=O (stereo partly specified)
Result: 14

* * *

Test system: T47D
Test: Antiproliferative activity against human T47D cells after 48 hrs by resazurin reduction assay
Assay type: functional, cell-based
// reported pIC50 for each item listed
Scale explanation: pIC50 corresponds to minus log10 of a concentration expressed in moles per litre.

Completed entries (count: 2):
- CN1[C@@H]2c3c(COC(N)=O)c4c(n3C[C@@H]21)C(=O)C=CC4=O (stereo partly drawn): 5.03
- CC1=CC(=O)c2c(COC(N)=O)c3n(c2C1=O)C[C@H]1[C@@H]3N1C (stereo partly drawn): 6.65

Query: # pIC50 lookup, item CO[C@@]12[C@H](COC(N)=O)C3=C(C(=O)C(C)=C(N)C3=O)N1C[C@@H]1N[C@@H]12
Result: 4.77
